Origin of values: the supplement of paper PMC6555819

# System: PPARg DBDmut IVT, anti-PPARg (DBD mutation: PPARg1 K132A/R137A, NR concentration 270 nM)
# Protocol summary: PBM binding z-score (relative to random genomic background probes); higher = stronger binding; sequences stand for … in GC…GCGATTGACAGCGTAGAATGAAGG
Recorded PBM binding z-score for the following sequences

{"Residue codes": "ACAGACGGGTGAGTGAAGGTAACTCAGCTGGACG", "PBM binding z-score": -1.31}
{"Residue codes": "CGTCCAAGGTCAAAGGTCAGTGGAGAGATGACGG", "PBM binding z-score": 0.543}
{"Residue codes": "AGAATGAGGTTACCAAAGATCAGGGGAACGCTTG", "PBM binding z-score": 0.161}
{"Residue codes": "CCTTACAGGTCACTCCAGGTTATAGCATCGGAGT", "PBM binding z-score": 0.777}
{"Residue codes": "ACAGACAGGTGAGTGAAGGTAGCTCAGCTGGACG", "PBM binding z-score": -1.08}
{"Residue codes": "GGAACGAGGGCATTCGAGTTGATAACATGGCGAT", "PBM binding z-score": 0.0771}
{"Residue codes": "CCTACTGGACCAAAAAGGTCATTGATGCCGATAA", "PBM binding z-score": -0.226}
{"Residue codes": "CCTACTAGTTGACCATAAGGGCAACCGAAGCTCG", "PBM binding z-score": -0.627}
{"Residue codes": "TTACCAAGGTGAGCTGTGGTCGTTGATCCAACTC", "PBM binding z-score": 0.327}
{"Residue codes": "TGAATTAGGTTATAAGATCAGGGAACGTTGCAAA", "PBM binding z-score": 1.15}
{"Residue codes": "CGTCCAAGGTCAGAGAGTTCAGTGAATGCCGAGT", "PBM binding z-score": -1.29}
{"Residue codes": "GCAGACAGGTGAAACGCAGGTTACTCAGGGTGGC", "PBM binding z-score": -0.933}
{"Residue codes": "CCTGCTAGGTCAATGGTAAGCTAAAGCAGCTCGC", "PBM binding z-score": -0.489}

----------
# System: VDR homodimer (NR concentration 270 nM)
# Protocol summary: PBM binding z-score (relative to random genomic background probes); higher = stronger binding; sequences stand for … in GC…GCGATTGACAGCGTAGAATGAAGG

{"Residue codes": "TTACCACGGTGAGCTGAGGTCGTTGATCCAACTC", "PBM binding z-score": 1.64}
{"Residue codes": "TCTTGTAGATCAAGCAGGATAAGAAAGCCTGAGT", "PBM binding z-score": 0.105}
{"Residue codes": "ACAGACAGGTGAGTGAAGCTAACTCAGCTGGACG", "PBM binding z-score": -1.08}
{"Residue codes": "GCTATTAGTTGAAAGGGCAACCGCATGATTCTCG", "PBM binding z-score": 0.195}
{"Residue codes": "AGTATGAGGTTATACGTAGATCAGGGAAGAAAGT", "PBM binding z-score": 0.823}

----------
# Tested on: PPARg:RXRa 30nM:10nM, anti-RXR (NR concentration 30 nM, RXRa partner concentration 10 nM)
# Protocol summary: PBM binding z-score (relative to random genomic background probes); higher = stronger binding; sequences stand for … in GC…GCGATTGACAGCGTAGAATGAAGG

{"Residue codes": "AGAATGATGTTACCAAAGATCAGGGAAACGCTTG", "PBM binding z-score": 0.0901}
{"Residue codes": "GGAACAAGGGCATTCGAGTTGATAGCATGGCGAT", "PBM binding z-score": -0.0599}
{"Residue codes": "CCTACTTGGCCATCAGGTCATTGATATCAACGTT", "PBM binding z-score": 0.665}
{"Residue codes": "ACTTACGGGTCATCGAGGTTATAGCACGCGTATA", "PBM binding z-score": 2.13}
{"Residue codes": "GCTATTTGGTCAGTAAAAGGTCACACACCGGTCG", "PBM binding z-score": 2.76}
{"Residue codes": "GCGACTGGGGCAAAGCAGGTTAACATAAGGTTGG", "PBM binding z-score": 0.0162}
{"Residue codes": "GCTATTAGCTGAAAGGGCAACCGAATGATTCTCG", "PBM binding z-score": 0.859}
{"Residue codes": "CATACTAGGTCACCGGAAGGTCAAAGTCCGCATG", "PBM binding z-score": 4.5}
{"Residue codes": "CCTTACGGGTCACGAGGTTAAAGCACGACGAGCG", "PBM binding z-score": 3.78}
{"Residue codes": "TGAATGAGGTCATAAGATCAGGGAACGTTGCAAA", "PBM binding z-score": 4.09}
{"Residue codes": "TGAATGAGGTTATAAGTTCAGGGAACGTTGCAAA", "PBM binding z-score": 1.55}
{"Residue codes": "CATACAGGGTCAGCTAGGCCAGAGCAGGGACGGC", "PBM binding z-score": 0.789}
{"Residue codes": "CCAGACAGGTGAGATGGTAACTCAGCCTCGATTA", "PBM binding z-score": -0.316}
{"Residue codes": "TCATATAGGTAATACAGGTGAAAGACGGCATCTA", "PBM binding z-score": 4.26}
{"Residue codes": "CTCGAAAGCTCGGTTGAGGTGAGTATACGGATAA", "PBM binding z-score": -0.328}
{"Residue codes": "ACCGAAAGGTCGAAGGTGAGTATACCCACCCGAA", "PBM binding z-score": 1.89}
{"Residue codes": "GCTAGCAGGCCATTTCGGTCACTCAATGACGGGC", "PBM binding z-score": -0.633}
{"Residue codes": "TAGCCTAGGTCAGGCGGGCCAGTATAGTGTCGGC", "PBM binding z-score": -0.814}
{"Residue codes": "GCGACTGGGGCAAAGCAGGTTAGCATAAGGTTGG", "PBM binding z-score": -0.509}
{"Residue codes": "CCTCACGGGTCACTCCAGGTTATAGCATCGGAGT", "PBM binding z-score": 0.902}

----------
# Test system: LXRa homodimer (NR concentration 270 nM)
# Protocol summary: PBM binding z-score (relative to random genomic background probes); higher = stronger binding; sequences stand for … in GC…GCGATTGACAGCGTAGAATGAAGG
Listing of recorded PBM binding z-score by entry.
Readout: PBM binding z-score

{"Residue codes": "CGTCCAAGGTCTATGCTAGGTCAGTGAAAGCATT", "Value": 0.995}
{"Residue codes": "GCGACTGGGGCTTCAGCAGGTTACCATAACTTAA", "Value": -0.373}
{"Residue codes": "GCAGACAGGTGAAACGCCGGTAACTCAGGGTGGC", "Value": -0.611}
{"Residue codes": "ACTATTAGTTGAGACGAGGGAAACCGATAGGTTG", "Value": -0.36}
{"Residue codes": "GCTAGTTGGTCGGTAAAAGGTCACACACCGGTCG", "Value": 3.77}
{"Residue codes": "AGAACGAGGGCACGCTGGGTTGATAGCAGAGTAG", "Value": -0.399}
{"Residue codes": "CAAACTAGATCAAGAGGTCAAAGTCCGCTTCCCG", "Value": 6.71}
{"Residue codes": "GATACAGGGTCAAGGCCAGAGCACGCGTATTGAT", "Value": 0.0226}
{"Residue codes": "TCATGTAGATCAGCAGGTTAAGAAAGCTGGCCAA", "Value": -0.338}
{"Residue codes": "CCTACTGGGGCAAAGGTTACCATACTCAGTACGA", "Value": 0.187}
{"Residue codes": "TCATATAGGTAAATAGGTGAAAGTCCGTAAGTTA", "Value": 0.298}
{"Residue codes": "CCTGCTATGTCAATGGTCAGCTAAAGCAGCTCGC", "Value": -0.882}
{"Residue codes": "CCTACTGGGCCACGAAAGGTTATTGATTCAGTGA", "Value": 0.5}
{"Residue codes": "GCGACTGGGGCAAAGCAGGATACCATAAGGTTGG", "Value": -0.556}
{"Residue codes": "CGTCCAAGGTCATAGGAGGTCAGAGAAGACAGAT", "Value": 5.01}
{"Residue codes": "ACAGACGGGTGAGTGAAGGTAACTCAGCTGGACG", "Value": -0.31}
{"Residue codes": "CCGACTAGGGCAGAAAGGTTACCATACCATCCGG", "Value": 0.0905}
{"Residue codes": "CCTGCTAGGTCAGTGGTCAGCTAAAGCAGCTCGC", "Value": -0.482}
{"Residue codes": "CGTCCAAGGTCAGCGAGGTCAGTGAATGCCGAGT", "Value": 1.83}
{"Residue codes": "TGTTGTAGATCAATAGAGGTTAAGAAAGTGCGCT", "Value": 1.16}
{"Residue codes": "CCTGCTAGGTGAATGGTCAGCTAAAGCAGCTCGC", "Value": -0.807}
{"Residue codes": "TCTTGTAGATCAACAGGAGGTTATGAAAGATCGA", "Value": 0.215}
{"Residue codes": "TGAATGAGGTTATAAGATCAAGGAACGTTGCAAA", "Value": -0.207}
{"Residue codes": "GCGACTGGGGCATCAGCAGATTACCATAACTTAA", "Value": -0.401}
{"Residue codes": "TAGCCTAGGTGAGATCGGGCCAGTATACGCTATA", "Value": -0.692}
